Provide the reported Population Tubulin-Different-Phenotype (%) of each item.
System: U2OS
assay overview: Multiplex assay against U2OS
Assay type: toxicity, cell-based
setup conditions: human, 24 h, 1 µM, compound concentration 1 uM, replicate 1
Respond numerically; units are % and should not be typed.

Lab note: need Population Tubulin-Different-Phenotype (%) with U2OS for entry `O=C1NC(=O)C(c2cnc3ccccn23)=C1c1cn2c3c(cc(F)cc13)CN(C(=O)N1CCCCC1)CC2` , please look it up. 25

Lab note: need Population Tubulin-Different-Phenotype (%) with U2OS for entry `CCN1CCN(Cc2ccc(Nc3ncc(F)c(-c4cc(F)c5nc(C)n(C(C)C)c5c4)n3)nc2)CC1.CS(=O)(=O)O` , please look it up. 89

Lab note: need Population Tubulin-Different-Phenotype (%) with U2OS for entry `Cn1nc(C(F)(F)F)cc1-c1cnc(N2CCc3cc(S(=O)(=O)Nc4c(F)cc(Cl)cc4F)cc(N4CCCC4=O)c32)nc1` , please look it up. 16

====

Test system: U2OS
assay overview: Multiplex assay against U2OS
Type: toxicity, cell-based
setup conditions: human, 12 h, 1 µM, compound concentration 1 uM, replicate 2
measurement type: Population Mitochondria Different-Phenotype (%)
Respond numerically; units are % and should not be typed.

Lab note: need Population Mitochondria Different-Phenotype (%) with U2OS for entry C=C1/C(=C\C=C2/CCC[C@]3(C)[C@@H]([C@H](C)/C=C/[C@H](C)C(C)C)CC[C@@H]23)C[C@@H](O)C[C@@H]1O [DOXERCALCIFEROL] , please look it up. 14

Lab note: need Population Mitochondria Different-Phenotype (%) with U2OS for entry `NC(=O)c1cccc(-c2cc(Nc3ccc(OC(F)(F)F)cc3)ncn2)c1` , please look it up. 36

Lab note: need Population Mitochondria Different-Phenotype (%) with U2OS for entry `CCN1CCN(Cc2ccc(Nc3ncc(F)c(-c4cc(F)c5nc(C)n(C(C)C)c5c4)n3)nc2)CC1.CS(=O)(=O)O` , please look it up. 91

Lab note: need Population Mitochondria Different-Phenotype (%) with U2OS for entry `CCc1cccc(CC)c1NC(=O)c1nn(C)c2c1CCc1cnc(Nc3ccc(N4CCN(C)CC4)cc3OC)nc1-2` , please look it up. 100

====

Provide the reported Population Pyknosed Nuclei (%) of each item.
Tested on: U2OS
assay overview: Multiplex assay against U2OS
Type: toxicity, cell-based
setup conditions: human, 48 h, 10 µM, compound concentration 10 uM, replicate 1
Respond numerically; units are % and should not be typed.

Form field: reported Population Pyknosed Nuclei (%) of `Cc1cn(-c2cc(NC(=O)c3ccc(C)c(Nc4nccc(-c5cccnc5)n4)c3)cc(C(F)(F)F)c2)cn1` 19

Form field: reported Population Pyknosed Nuclei (%) of `CCN1CCN(Cc2ccc(Nc3ncc(F)c(-c4cc(F)c5nc(C)n(C(C)C)c5c4)n3)nc2)CC1.CS(=O)(=O)O` 53

Form field: reported Population Pyknosed Nuclei (%) of `O=C(Nc1ccc(-n2nc(-c3cccnc3)cc2C(F)(F)F)cn1)c1ccc(-c2ccccc2)c(F)c1` 17

Form field: reported Population Pyknosed Nuclei (%) of `CCc1cccc(CC)c1NC(=O)c1nn(C)c2c1CCc1cnc(Nc3ccc(C(=O)NC4CCN(C)CC4)cc3OC(F)(F)F)nc1-2` 38

====

System: U2OS
assay overview: Multiplex assay against U2OS
Assay type: toxicity, cell-based
setup conditions: human, 24 h, 10 µM, compound concentration 10 uM, replicate 2
Provide the reported Population Mitochondria Different-Phenotype (%) of each item.
Respond numerically; units are % and should not be typed.

Form field: reported Population Mitochondria Different-Phenotype (%) of `O=C(Nc1cccnn1)N1CCC(=Cc2cccc(Oc3ccc(C(F)(F)F)cn3)c2)CC1` 31

Form field: reported Population Mitochondria Different-Phenotype (%) of `Cc1ccc(C(=O)Nc2cccc(C(F)(F)F)c2)cc1Nc1nc(-c2cccnc2)nc2c1cnn2C` 75

Form field: reported Population Mitochondria Different-Phenotype (%) of `CCc1cccc(CC)c1NC(=O)c1nn(C)c2c1CCc1cnc(Nc3ccc(N4CCN(C)CC4)cc3OC)nc1-2` 75

Form field: reported Population Mitochondria Different-Phenotype (%) of `O=C(Nc1ccc(Cl)cc1)Nc1cccc(-c2cccc(N3CCCC3)n2)c1` 15

Form field: reported Population Mitochondria Different-Phenotype (%) of `O=C(Nc1ccc(-c2ccnc(Nc3ccc(N4CCOCC4)cc3)n2)cc1)[C@@H]1CCCN1` 17

Form field: reported Population Mitochondria Different-Phenotype (%) of `COc1cccc2cc(-c3nc([C@H]4CC[C@H](C(=O)O)CC4)n4ncnc(N)c34)[nH]c12` 31

Form field: reported Population Mitochondria Different-Phenotype (%) of `CN1CCN(C(=O)C(C)(C)c2ccc(C(=O)Nc3cn4cc(-c5cc(C(C)(C)C)cc(C(C)(C)C)c5)ccc4n3)cc2)CC1` 56

Form field: reported Population Mitochondria Different-Phenotype (%) of `C=C1/C(=C\C=C2/CCC[C@]3(C)[C@@H]([C@H](C)/C=C/[C@H](C)C(C)C)CC[C@@H]23)C[C@@H](O)C[C@@H]1O` 16

Form field: reported Population Mitochondria Different-Phenotype (%) of `Cl.O=c1c2cccn2c2ccccc2n1CCCN1CCC(c2ccc(Cl)cc2)CC1` 98

Form field: reported Population Mitochondria Different-Phenotype (%) of `COc1cc(N2CCN(C)CC2)ccc1Nc1ncc2c(n1)N(C)c1ccccc1C(=O)N2C` 93

Form field: reported Population Mitochondria Different-Phenotype (%) of `O=C(Nc1ccc(-n2nc(-c3cccnc3)cc2C(F)(F)F)cn1)c1ccc(-c2ccccc2)c(F)c1` 13

Form field: reported Population Mitochondria Different-Phenotype (%) of `CCN1CCN(c2ccc(Nc3cc(N(C)C(=O)Nc4c(Cl)c(OC)cc(OC)c4Cl)ncn3)cc2)CC1` 20

Form field: reported Population Mitochondria Different-Phenotype (%) of `Cc1ccc2nc(NCCN)c3ncc(C)n3c2c1.O=C(O)C(F)(F)F.O=C(O)C(F)(F)F` 42

Form field: reported Population Mitochondria Different-Phenotype (%) of CN1C2CCC1CC(OC(c1ccc(F)cc1)c1ccc(F)cc1)C2.Cl (stereo unspecified) 78

Form field: reported Population Mitochondria Different-Phenotype (%) of `CNC(=O)c1ccc(Nc2nc(OC3CCCC3)c3c(-c4ccc5nc(C)oc5c4)c[nH]c3n2)c(OC)c1` 28

Form field: reported Population Mitochondria Different-Phenotype (%) of `Cn1nc(C(F)(F)F)cc1-c1cnc(N2CCc3cc(S(=O)(=O)Nc4c(F)cc(Cl)cc4F)cc(N4CCCC4=O)c32)nc1` 45
